tested on: panel of six human and rodent cancer cell lines and MRC5; assay: Cytotoxic activity over the whole cell line panel (MTT and CV); format: cell-based; conditions: 72 h, all investigated cell lines
MEASURED_PARAMETER: Cytotoxic activity in words

[
  {
    "STRUCTURE": "CCC[c-]1c(C)c(C)c(C)c1C.CCC[c-]1c(C)c(C)c(C)c1C.[Cl-].[Cl-].[Cl-].[Cl-].[Ir+3].[Ir+3]",
    "RESULT": "moderate cytotoxicity"
  },
  {
    "STRUCTURE": "CC1=C(C)[C](c2ccc(O)cc2)([Ir]([Cl])[Cl])C(C)=C1C.CC1=C(C)[C](c2ccc(O)cc2)([Ir]([Cl])[Cl])C(C)=C1C",
    "RESULT": "substantially inactive"
  },
  {
    "STRUCTURE": "CC1=C(C)[C](c2ccc(F)cc2)([Ir]([Cl])[Cl])C(C)=C1C.CC1=C(C)[C](c2ccc(F)cc2)([Ir]([Cl])[Cl])C(C)=C1C",
    "RESULT": "moderate cytotoxicity"
  },
  {
    "STRUCTURE": "Cc1[cH-]c(C)c(C)c1C.Cc1[cH-]c(C)c(C)c1C.[Cl-].[Cl-].[Cl-].[Cl-].[Ir+3].[Ir+3]",
    "RESULT": "substantially inactive"
  }
]
